# Test system: dallisgrass
# assay.notes: Test G preemergence/postemergence greenhouse plant response rating 0 to 100
# Type: in vivo, Paspalum dilatatum
# condition.summary: PREEMERGENCE, Rate 250 g/ha, 0 to 100 scale
Assign Plant response rating, Dallisgrass to each entry below.
Give only the figure.

Lab request: please report Plant response rating, Dallisgrass under test system dallisgrass for CCCN1C(=O)COc2cc(F)c(-c3nn4c(c3Cl)CCCC4)cc21
0

Now consider CCCOc1cc(-c2nn3c(c2Cl)CCCC3)c(F)cc1Cl and answer again.
20

Then this molecule: CCS(=O)(=O)Oc1cc(-c2nn3c(c2Cl)CCCC3)c(F)cc1Cl
0

Record: COC(=O)C(C)Oc1cc(-c2nn3c(c2Cl)CCCC3)c(F)cc1Cl (stereo not drawn)
0

Same question for CC(C)COc1cc(-c2nn3c(c2Cl)CCCC3)c(F)cc1Cl please.
0

Please answer likewise for C=CCN1C(=O)COc2cc(F)c(-c3nn4c(c3Cl)CCCC4)cc21
0

====

# System: arrowhead
# assay.notes: Test D paddy water application plant response rating 0 to 100
# Type: in vivo, Sagittaria spp.
# condition.summary: Rate 32 g/ha, 0 to 100 scale, approx. 21 days
measured.metric: Arrowhead plant response rating
Number only, no unit.

What does the data say about its Arrowhead plant response rating? Entry: CC(C)N1C(=O)COc2cc(F)c(-c3nn4c(c3Cl)CCCC4)cc21 [Compound 31]
100

Follow-up entry: Fc1cc(Cl)ccc1-c1nn2c(c1Br)CCCC2 [Compound 52]
10

// query: C#CCN1C(=O)COc2cc(F)c(-c3nn4c(c3Cl)CCCC4)cc21 [Compound 34]
100

Further, for C=C(Cl)COc1cc(-c2nn3c(c2Cl)CCCC3)c(F)cc1Cl [Compound 40] ?
0

====

# Tested on: cheatgrass
# assay.notes: Test B preemergence/postemergence greenhouse plant response rating 0 to 10
# Type: in vivo, Bromus secalinus
# condition.summary: POSTEMERGENCE, Rate 200 g/ha; 0 to 10 scale
Could you please mark true (1) for values of Plant response rating, Cheatgrass below 5 and false (0) for values at or above it?

# TODO verify Plant response rating, Cheatgrass < 5 strictly for this molecule: COc1cc(-c2nn3c(c2Cl)CCCC3)c(F)cc1Cl
false (0)

Record: CC(C)COc1cc(-c2nn3c(c2Cl)CCCC3)c(F)cc1Cl
false (0)

Now consider Clc1ccc(-c2nc3n(c2Br)CCCC3)c(Cl)c1 .
true (1)

Next: CC(C)OC(=O)COc1cc(-c2nn3c(c2Cl)CCCC3)c(F)cc1Cl
true (1)

Follow-up item: CCC(=O)Oc1cc(-c2nn3c(c2Cl)CCCC3)c(F)cc1Cl
true (1)

Entry COC(=O)c1cc(-c2nn3c(c2Cl)CCCC3)c(F)cc1Cl please
false (0)

// same read-out, input: CC(=O)c1cc(-c2nn3c(c2Cl)CCCC3)c(F)cc1Cl
false (0)

Follow-up item: Fc1cc(Cl)c(OCc2ccccc2)cc1-c1nn2c(c1Cl)CCCC2
true (1)

Try this molecule next: CCCOc1cc(-c2nn3c(c2Cl)CCCC3)c(F)cc1Cl
false (0)

Same read-out for CCC(C)Oc1cc(-c2nn3c(c2Cl)CCCC3)c(F)cc1Cl (stereo not drawn) ?
false (0)

====

Would you kindly list Plant response rating (0 to 100), Ryegrass for each of these compounds?
# Test system: ryegrass
# assay.notes: Test C preemergence/postemergence greenhouse plant response rating 0 to 100
# Assay type: in vivo, Lolium multiflorum
# condition.summary: Rate 16 g/ha; POSTEMERGENCE
API note: the answer field is a bare number with no unit suffix.

Would you mind telling me what Plant response rating (0 to 100), Ryegrass value was observed for COc1cc(-c2nn3c(c2Cl)CCCC3)c(F)cc1Cl ?
60

And for CCC(C)Oc1cc(-c2nn3c(c2Cl)CCCC3)c(F)cc1Cl (centres unmarked) ?
20

Similarly, COCN1C(=O)COc2cc(F)c(-c3nn4c(c3Br)CCCC4)cc21 ?
50

Follow-up entry: C#CCN1C(=O)COc2cc(F)c(-c3nn4c(c3Br)CCCC4)cc21
40

Next: COC(=O)c1cc(-c2nn3c(c2Cl)CCCC3)c(F)cc1Cl
40

How about Fc1cc(Cl)c(OCCCl)cc1-c1nn2c(c1Cl)CCCC2 ?
40

Please answer likewise for CC(C)COc1cc(-c2nn3c(c2Cl)CCCC3)c(F)cc1Cl
40

Okay, and C=C(Cl)COc1cc(-c2nn3c(c2Cl)CCCC3)c(F)cc1Cl ?
10

====

# Test system: barley
# assay.notes: Test B preemergence/postemergence greenhouse plant response rating 0 to 10
# Assay type: in vivo, Hordeum vulgare
# condition.summary: Rate 200 g/ha, POSTEMERGENCE; 0 to 10 scale
Quick rule for you: Plant response rating, Barley under 5 gets MET, anything else gets NOT MET.

Please indicate whether the reported Plant response rating, Barley of CC(C)Oc1cc(-c2nn3c(c2Cl)CCCC3)c(Cl)cc1Cl [Compound 70] is strictly below 5.
MET

Request: O=C1COc2cc(F)c(-c3nn4c(c3Br)CCCC4)cc2N1 [Compound 80]
MET

Can you handle COCOc1cc(-c2nn3c(c2Br)CCCC3)c(F)cc1Cl [Compound 65] next?
NOT MET

Another molecule: Oc1cc(-c2nn3c(c2Cl)CCCC3)c(Cl)cc1Cl [Compound 68]
MET

C#CC(C)Oc1cc(-c2nn3c(c2Br)CCCC3)c(F)cc1Cl (stereo not shown) [Compound 66] ?
NOT MET

Same thing, different molecule: COCOc1cc(-c2nn3c(c2Cl)CCCC3)c(F)cc1Cl [Compound 58]
NOT MET

Quick one: C=CCOc1cc(-c2nn3c(c2Cl)CCCC3)c(Cl)cc1Cl [Compound 71]
MET

What would you report for Clc1cc(Cl)c(-c2nn3c(c2Cl)CCCC3)cc1OCC1CC1 [Compound 69] ?
MET

Let us now turn to CC(C)OC(=O)COc1cc(-c2nn3c(c2Br)CCCC3)c(F)cc1Cl [Compound 64]
MET

====

# Tested on: crabgrass
# assay.notes: Test C preemergence/postemergence greenhouse plant response rating 0 to 100
# Format: in vivo, Digitaria sanguinalis
# condition.summary: POSTEMERGENCE, 250 g/ha, 0 to 100 scale
Field: Plant response rating, Crabgrass. Provide a value for each of the compounds that follow.
In your answer, state the number alone without any accompanying words.

Quick check: Plant response rating, Crabgrass of C#CC(C)N1C(=O)COc2cc(F)c(-c3nn4c(c3Cl)CCCC4)cc21 (centres unmarked) ?
50

Same lookup for C#CCOc1cc(-c2nn3c(c2Br)CCCC3)c(F)cc1Cl , please.
40

What do you get for COC(=O)C(C)Oc1cc(-c2nn3c(c2Cl)CCCC3)c(F)cc1Cl (centres unmarked) ?
50

Please give the result for CC(C)COc1cc(-c2nn3c(c2Cl)CCCC3)c(F)cc1Cl too.
20

Next entry: CC(C)OC(=O)c1cc(-c2nn3c(c2Cl)CCCC3)c(F)cc1Cl
50

====

Provide the recorded Plant response rating (0 to 100), Wild buckwheat for the entries that follow.
# Test system: wild buckwheat
# assay.notes: Test C preemergence/postemergence greenhouse plant response rating 0 to 100
# Assay type: in vivo, Polygonum convolvulus
# condition.summary: POSTEMERGENCE; Rate 1 g/ha
Lab note: record the figure alone, no unit after it.

Bench note: what Plant response rating (0 to 100), Wild buckwheat did CC(C)Oc1cc(-c2nn3c(c2Br)CCCC3)c(F)cc1Cl show?
40

Okay, and C#CCN1C(=O)COc2cc(F)c(-c3nn4c(c3Br)CCCC4)cc21 ?
100

Field entry: CC(C)N1C(=O)COc2cc(F)c(-c3nn4c(c3Cl)CCCC4)cc21
70

Follow-up item: C=CCN1C(=O)COc2cc(F)c(-c3nn4c(c3Cl)CCCC4)cc21
80

====

# Tested on: velvetleaf
# assay.notes: Test B preemergence/postemergence greenhouse plant response rating 0 to 10
# Type: in vivo, Abutilon theophrasti
# condition.summary: Rate 200 g/ha, POSTEMERGENCE; 0 to 10 scale
Exercise: state measured Plant response rating, Velvetleaf for each of the molecules provided.
// no unit string in output, number only

What value of Plant response rating, Velvetleaf has been recorded for this entry: CC(C)Oc1cc(-c2nn3c(c2Cl)CCCC3)c(Cl)cc1Cl
10

Then CCC(=O)Oc1cc(-c2nn3c(c2Cl)CCCC3)c(F)cc1Cl ?
9

Input Oc1cc(-c2nn3c(c2Br)CCCC3)c(F)cc1Cl
10

Also need C#CC(C)Oc1cc(-c2nn3c(c2Cl)CCCC3)c(Cl)cc1Cl (stereo not shown) , thanks.
10

Quick one: CC(C)OC(=O)COc1cc(-c2nn3c(c2Cl)CCCC3)c(F)cc1Cl
10

Can you handle O=C1COc2cc(F)c(-c3nn4c(c3Br)CCCC4)cc2N1 next?
10

Moving on to the next molecule: C#CC(C)Oc1cc(-c2nn3c(c2Cl)CCCC3)c(F)cc1Cl (stereo not shown)
10

Subsequent entry: CCOC(=O)COc1cc(-c2nn3c(c2Cl)CCCC3)c(Cl)cc1Cl
9

Continue with O=C1COc2cc(F)c(-c3nn4c(c3Cl)CCCC4)cc2N1
10

Field entry: COCOc1cc(-c2nn3c(c2Br)CCCC3)c(F)cc1Cl
10
